The following compounds are shown together with reported Dmax values.
# Study Target: BCL-XL (Homo sapiens)
# Construct: BCL-XL degradation results in MOLT-4 cells for compounds of the invention; endogenous in cells; host or cells: MOLT-4
# Experiment Notes: BCL-XL degradation assay in MOLT-4 cells (ELISA, 6 h)
# Format: cell-based

>>> result("Cc1ncsc1-c1ccc([C@H](C)NC(=O)[C@@H]2C[C@@H](O)CN2C(=O)[C@@H](NC(=O)CCCCCC(=O)N2CCN(CCCNc3ccc(S(=O)(=O)NC(=O)c4ccc(N5CCN(Cc6ccccc6-c6ccc(Cl)cc6)CC5)cc4Oc4cnc5[nH]ccc5c4)cc3S(=O)(=O)C(F)(F)F)CC2)C(C)(C)C)cc1 [I-51]")
"50 to 75%"
>>> result("Cc1ncsc1-c1ccc([C@H](C)NC(=O)[C@@H]2C[C@@H](O)CN2C(=O)[C@@H](NC(=O)CCCCCCN(C)CC[C@H](CSc2ccccc2)Nc2ccc(S(=O)(=O)NC(=O)c3ccc(N4CCC([C@@H](O)c5ccccc5-c5ccc(Cl)cc5)CC4)cc3)cc2S(=O)(=O)C(F)(F)F)C(C)(C)C)cc1 [I-108]")
"50 to 75%"

We next turn to a different compound, shown below.
Query string: Look up Dmax of Cc1ncsc1-c1ccc([C@H](C)NC(=O)[C@@H]2C[C@@H](O)CN2C(=O)[C@@H](NC(=O)CCCCCCC(=O)N2CCN(C(=O)c3ccc(-c4ccc(Cl)cc4)c(CN4CCN(c5ccc(C(=O)NS(=O)(=O)c6ccc(N[C@H](CCN(C)C)CSc7ccccc7)c([N+](=O)[O-])c6)cc5)CC4)c3)CC2)C(C)(C)C)cc1 [I-6] and report it.
Result string: < 50%

###

# Study Target: BCL-XL (Homo sapiens, UniProt Q07817)
# Construct: BCL-XL degradation results in MOLT-4 cells for compounds of the invention; endogenous in cells; host or cells: MOLT-4
# Sequence (Q07817 whole entry): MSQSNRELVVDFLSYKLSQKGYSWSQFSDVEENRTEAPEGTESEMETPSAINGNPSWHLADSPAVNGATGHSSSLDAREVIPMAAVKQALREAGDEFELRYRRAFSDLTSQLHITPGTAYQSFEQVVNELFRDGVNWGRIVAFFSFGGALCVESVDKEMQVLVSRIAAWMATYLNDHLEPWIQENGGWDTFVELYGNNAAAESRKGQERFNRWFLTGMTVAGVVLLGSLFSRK
# Experiment Notes: BCL-XL degradation assay in MOLT-4 cells (ELISA, 6 h)
# Format: cell-based
# Experimental Context: read-out: Bcl-xL ELISA in MOLT-4 degradation 6 h: External Abs-DC50
Observable: DC50

>>> result("Cc1ncsc1-c1ccc([C@H](C)NC(=O)[C@@H]2C[C@@H](O)CN2C(=O)[C@@H](NC(=O)CCCCCCN2CCN(CC[C@H](CSc3ccccc3)Nc3ccc(S(=O)(=O)NC(=O)c4ccc(N5CCN(Cc6ccccc6-c6ccc(Cl)cc6)CC5)cc4)cc3[N+](=O)[O-])CC2)C(C)(C)C)cc1 [I-13]")
"500 to 1000 nM"
>>> result("Cc1ncsc1-c1ccc([C@H](C)NC(=O)[C@@H]2C[C@@H](O)CN2C(=O)[C@@H](NC(=O)CCCCCC(=O)N2CCN(CC[C@H](CSc3ccccc3)Nc3ccc(S(=O)(=O)NC(=O)c4ccc(N5CCC([C@@H](O)c6ccccc6-c6ccc(Cl)cc6)CC5)cc4)cc3S(=O)(=O)C(F)(F)F)CC2)C(C)(C)C)cc1 [I-28]")
"10 to 100 nM"
>>> result("Cc1ncsc1-c1ccc([C@H](C)NC(=O)[C@@H]2C[C@@H](O)CN2C(=O)[C@@H](NC(=O)CCCCCCC(=O)N2CCN(CCCNc3ccc(S(=O)(=O)NC(=O)c4ccc(N5CCN(CC6=C(c7ccc(Cl)cc7)CC(C)(C)CC6)CC5)cc4Oc4cnc5[nH]ccc5c4)cc3S(=O)(=O)C(F)(F)F)CC2)C(C)(C)C)cc1 [I-81]")
"10 to 100 nM"
>>> result("Cc1ncsc1-c1ccc([C@H](C)NC(=O)[C@@H]2C[C@@H](O)CN2C(=O)[C@@H](NC(=O)CCCCCCCC(=O)N2CCN(Cc3ccc(-c4ccc(Cl)cc4)c(CN4CCN(c5ccc(C(=O)NS(=O)(=O)c6ccc(N[C@H](CCN(C)C)CSc7ccccc7)c([N+](=O)[O-])c6)cc5)CC4)c3)CC2)C(C)(C)C)cc1 [I-8]")
"100 to 500 nM"
>>> result("Cc1ncsc1-c1ccc([C@H](C)NC(=O)[C@@H]2C[C@@H](O)CN2C(=O)[C@@H](NC(=O)CCCCCCC(=O)N2CCN(CC[C@H](CSc3ccccc3)Nc3ccc(S(=O)(=O)NC(=O)c4ccc(N5CCC([C@@H](O)c6ccccc6-c6ccc(Cl)cc6)CC5)cc4)cc3S(=O)(=O)C(F)(F)F)CC2)C(C)(C)C)cc1 [I-120]")
"10 to 100 nM"
>>> result("Cc1ncsc1-c1ccc([C@H](C)NC(=O)[C@@H]2CC(O)CN2C(=O)[C@@H](NC(=O)CCCCCCC(=O)N2CCN(c3ccc(-c4ccc(Cl)cc4)c(CN4CCN(c5ccc(C(=O)NS(=O)(=O)c6ccc(N[C@H](CCN(C)C)CSc7ccccc7)c([N+](=O)[O-])c6)cc5)CC4)c3)CC2)C(C)(C)C)cc1 (stereo partly shown) [I-4]")
"500 to 1000 nM"
>>> result("C#Cc1ccc([C@H](C)NC(=O)[C@@H]2C[C@@H](O)CN2C(=O)[C@@H](NC(=O)CCCCCC(=O)N2CCN(CCCNc3ccc(S(=O)(=O)NC(=O)c4ccc(N5CCN(CC6=C(c7ccc(Cl)cc7)CC(C)(C)CC6)CC5)cc4Oc4cnc5[nH]ccc5c4)cc3S(=O)(=O)C(F)(F)F)CC2)C(C)(C)C)cc1 [I-85]")
"500 to 1000 nM"
>>> result("Cc1ncsc1-c1ccc([C@H](C)NC(=O)[C@@H]2C[C@@H](O)CN2C(=O)[C@@H](NC(=O)CCCCC(=O)N2CCC3(CCN(CC[C@H](CSc4ccccc4)Nc4ccc(S(=O)(=O)NC(=O)c5ccc(N6CCN([C@@H](O)c7ccccc7-c7ccc(Cl)cc7)CC6)cc5)cc4S(=O)(=O)C(F)(F)F)CC3)CC2)C(C)(C)C)cc1 [I-126]")
"10 to 100 nM"

Query string: Look up DC50 of Cc1ncsc1-c1ccc([C@H](C)NC(=O)[C@@H]2C[C@@H](O)CN2C(=O)[C@@H](NC(=O)CCCCCC(=O)N2CCN(CC[C@H](CSc3ccccc3)Nc3ccc(S(=O)(=O)NC(=O)c4ccc(N5CCN([C@@H](O)c6ccccc6-c6ccc(Cl)cc6)CC5)cc4)cc3S(=O)(=O)C(F)(F)F)CC2)C(C)(C)C)cc1 [I-121] and report it.
Result string: < 10 nM

Query string: Look up DC50 of Cc1ncsc1-c1ccc([C@H](C)NC(=O)[C@@H]2C[C@@H](O)CN2C(=O)[C@@H](NC(=O)CCCCCCCC(=O)N2CCN(CCCNc3ccc(S(=O)(=O)NC(=O)c4ccc(N5CCN(CC6=C(c7ccc(Cl)cc7)CC(C)(C)CC6)CC5)cc4Oc4cnc5[nH]ccc5c4)cc3S(=O)(=O)C(F)(F)F)CC2)C(C)(C)C)cc1 [I-86] and report it.
Result string: 10 to 100 nM

The measurements presented in this section are drawn from patent US20260092057A1.
